Biological target: Mucolipin-1 (Homo sapiens) (UniProt Q9GZU1)
Sequence (Q9GZU1 whole entry, looked up): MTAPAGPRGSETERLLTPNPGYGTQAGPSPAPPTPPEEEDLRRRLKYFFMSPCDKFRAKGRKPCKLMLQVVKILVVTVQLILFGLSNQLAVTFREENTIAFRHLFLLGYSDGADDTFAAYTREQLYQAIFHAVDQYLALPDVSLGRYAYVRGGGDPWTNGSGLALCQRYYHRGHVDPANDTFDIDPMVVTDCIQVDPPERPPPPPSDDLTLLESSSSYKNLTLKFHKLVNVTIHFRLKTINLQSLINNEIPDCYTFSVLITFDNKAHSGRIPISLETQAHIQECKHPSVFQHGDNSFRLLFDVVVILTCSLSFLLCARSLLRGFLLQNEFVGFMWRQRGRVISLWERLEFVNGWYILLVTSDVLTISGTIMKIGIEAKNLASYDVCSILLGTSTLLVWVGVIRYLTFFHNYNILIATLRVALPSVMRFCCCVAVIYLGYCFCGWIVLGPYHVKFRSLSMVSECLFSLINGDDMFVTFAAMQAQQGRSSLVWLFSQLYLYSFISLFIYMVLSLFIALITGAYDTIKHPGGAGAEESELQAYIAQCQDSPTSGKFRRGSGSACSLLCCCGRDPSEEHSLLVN
Assay: qHTS for Agonists of the Human Mucolipin Transient Receptor Potential 1 (TRPML1); also: 0% is about no effect
Conditions: TRPML1-expressing cells, Ca2+ dye fluorescence, FDSS
Text: Mutations of human Mucolipin transient receptor potential 1 (TRPML1) cause type IV mucolipidosis (ML4), a devastating neurodegenerative disease in young children. […] Currently, there is no treatment for ML4. […] TRPML1-DL cells are dissociated from flasks, counted and, brought up to a density of 500,000 cells per mL of media containing a 1X Tet inducer. […]
The whole screen tested about 410,000 compounds, of which about 480 (0.12%) were called active. Rule as the data show it: active = activation above about 50%; inconclusive = mostly about 30% to 49%; inactive = weaker than that. What follows is part of a selection rich in actives, with near analogues and random picks from the rest.
Outcome codes: 1.0 for active, 0.0 for inactive

- molecule: "CCOC(=O)N1CCC(NC(=O)c2cnn(-c3cccc(C)c3)c2C2CCN(C(=O)OC(C)(C)C)CC2)CC1"
  test-target: "Mucolipin-1 (Homo sapiens) (UniProt Q9GZU1)"
  assigned-category: 0.0
- molecule: "CCN(CC)CCCC(C)Nc1ccnc2cc(Cl)ccc12 (stereo not given)"
  test-target: "Mucolipin-1 (Homo sapiens) (UniProt Q9GZU1)"
  assigned-category: 0.0
- molecule: "O=C(c1ccc2c(c1)N(Cc1ccccc1F)C(=O)c1ccccc1S2(=O)=O)N1CCOCC1"
  test-target: "Mucolipin-1 (Homo sapiens) (UniProt Q9GZU1)"
  assigned-category: 0.0
- molecule: "O=C(CSc1ncc(-c2ccccc2)[nH]1)Nc1ccc(F)cc1F"
  test-target: "Mucolipin-1 (Homo sapiens) (UniProt Q9GZU1)"
  assigned-category: 0.0
- molecule: "CN(C)c1ccc(/C=C/c2sc3ccccc3[n+]2C)cc1"
  test-target: "Mucolipin-1 (Homo sapiens) (UniProt Q9GZU1)"
  assigned-category: 0.0
- molecule: "CCN(CC)/[N+]([O-])=N/OCOC(=O)Cc1c(C)n(C(=O)c2ccc(Cl)cc2)c2ccc(OC)cc12"
  test-target: "Mucolipin-1 (Homo sapiens) (UniProt Q9GZU1)"
  assigned-category: 0.0
- molecule: "COc1ccc(OC)c(NC(=O)CSC2=Nc3ccccc3C3=NC(CC(=O)NCc4ccc(F)cc4)C(=O)N23)c1 (stereo not given)"
  test-target: "Mucolipin-1 (Homo sapiens) (UniProt Q9GZU1)"
  assigned-category: 0.0
- molecule: "O=C(COc1ccccc1C(=O)Nc1ccccc1)Nc1cccc(F)c1"
  test-target: "Mucolipin-1 (Homo sapiens) (UniProt Q9GZU1)"
  assigned-category: 0.0
- molecule: "Cc1cccc(-n2ncc(C(=O)N3CCc4ccccc4C3)c2C2CCN(C(=O)OC(C)(C)C)CC2)c1"
  test-target: "Mucolipin-1 (Homo sapiens) (UniProt Q9GZU1)"
  assigned-category: 0.0
- molecule: "OC(CBr)C[n+]1cccc2cc(Br)ccc21 (stereo not given)"
  test-target: "Mucolipin-1 (Homo sapiens) (UniProt Q9GZU1)"
  assigned-category: 0.0
- molecule: "CCOC(=O)c1c(NC(=O)COc2cc(C)ccc2C(C)C)sc(C)c1C"
  test-target: "Mucolipin-1 (Homo sapiens) (UniProt Q9GZU1)"
  assigned-category: 0.0
- molecule: "CCc1ccc(C2CC(=O)c3c([nH]c(C(=O)OCc4ccc(C)cc4)c3C)C2)cc1 (stereo not given)"
  test-target: "Mucolipin-1 (Homo sapiens) (UniProt Q9GZU1)"
  assigned-category: 0.0
- molecule: "CN(N=O)c1ccc(C=C2c3ccccc3-c3ccccc32)cc1"
  test-target: "Mucolipin-1 (Homo sapiens) (UniProt Q9GZU1)"
  assigned-category: 0.0
- molecule: "CN(C)c1ccc(/C=N\\Nc2ccc([N+](=O)[O-])cc2[N+](=O)[O-])cc1Cl"
  test-target: "Mucolipin-1 (Homo sapiens) (UniProt Q9GZU1)"
  assigned-category: 0.0
- molecule: "CCN1CCN(c2ccc(/C=C/c3ccnc4ccccc34)cc2)CC1"
  test-target: "Mucolipin-1 (Homo sapiens) (UniProt Q9GZU1)"
  assigned-category: 0.0
- molecule: "O=S(=O)(Nc1cccc2cccnc12)c1cccc2cccnc12"
  test-target: "Mucolipin-1 (Homo sapiens) (UniProt Q9GZU1)"
  assigned-category: 0.0
- molecule: "COc1ccc(Cc2nc3ccc(C(=O)NCc4ccccc4Cl)cc3o2)cc1"
  test-target: "Mucolipin-1 (Homo sapiens) (UniProt Q9GZU1)"
  assigned-category: 0.0
- molecule: "O=C(COC(=O)c1ccccc1OCCOc1ccccc1)Nc1cccc(Br)c1"
  test-target: "Mucolipin-1 (Homo sapiens) (UniProt Q9GZU1)"
  assigned-category: 0.0
- molecule: "CC(=O)Nc1ccc(S(=O)(=O)N2N=NC3C2C2CC4C3(CN(C(=O)OC(C)(C)C)S4(=O)=O)O2)cc1 (stereo not given)"
  test-target: "Mucolipin-1 (Homo sapiens) (UniProt Q9GZU1)"
  assigned-category: 0.0
- molecule: "CC(C)(C)OC(=O)N1CCC(c2c(C(=O)N3CCN(c4cccc(Cl)c4)CC3)cnn2-c2cccc(Cl)c2)CC1"
  test-target: "Mucolipin-1 (Homo sapiens) (UniProt Q9GZU1)"
  assigned-category: 1.0
